Reference source for all entries: patent US20220144847A1

assay notes: Pharmacokinetics and tissue distribution of compounds in rats
Format: in vivo
study conditions: male, SD; plasma; rat, PO 5 mg/kg; read-out: Time to peak concentration Tmax
reported property: Tmax (h)
Value expressed in h; do not type the unit.

Which value of Tmax has been reported for CO[C@]1(C(=O)N[C@@H](C)c2ccc(-n3cc(F)cn3)nc2)CC[C@H](c2nc(C)cc(Nc3cc(C)[nH]n3)n2)CC1 [BLU-667, reference compound] in the records?
1

Please turn your attention to the following entry.
Which value of Tmax has been reported for Cc1cc(Nc2cc(C)[nH]n2)nc(-c2ccc(N3CC4CC(C3)N4Cc3ccc(-n4cc(F)cn4)nc3)nc2)n1 in the records?
2
